Entries and their IC50 values follow.
- target: KRas^G12R (Homo sapiens, UniProt P01116, G12R)
- Construct: Biotinylated KRas (corresponding to amino acids 1-169, produced at Accelegan Inc.); biotin (biotinylated); purchased Accelegan Inc
- Sequence (P01116 1-169 isoform P01116-2 G12R): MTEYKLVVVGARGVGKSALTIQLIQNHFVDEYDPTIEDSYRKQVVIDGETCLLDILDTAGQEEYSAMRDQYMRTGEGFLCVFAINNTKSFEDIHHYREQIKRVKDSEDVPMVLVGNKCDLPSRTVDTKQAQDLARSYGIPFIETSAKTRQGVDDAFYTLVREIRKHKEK
- procedure_details: KRas binding assay (TR-FRET tracer displacement), KRas G12R
Note: unit nM is implicit; provide only the numeric part.

Example cases with answers are listed next.
compound: CCc1c(F)ccc2cc(O)cc(-c3ncc4c(N5CC6CCC(C5)C6CC(=O)NC)nc(OC[C@@]56CCCN5C[C@H](F)C6)nc4c3F)c12 (stereo partly drawn) [Example 863]
reading_unit: nM
IC50: 34

compound: C[C@@]1(O)CCCN(c2nc(OCC34CCCN3CCC4)nc3c(F)c(-c4c(C5CC5)c(Cl)cc5[nH]ncc45)ncc23)C1 [Example 876]
reading_unit: nM
IC50: 22

compound: CCc1c(F)ccc2cc(O)cc(-c3ncc4c(N5CCC[C@@](C)(O)C5)nc(OCC5(CN(C)C)CC5(C)C)nc4c3F)c12 (stereo partly drawn) [Example 704]
reading_unit: nM
IC50: 11

Note to self: IC50 recorded for CCc1c(F)ccc2cc(O)cc(-c3ncc4c(N5CCOC[C@@](C)(COC)C5)nc(OC[C@@]56CCCN5C[C@H](F)C6)nc4c3F)c12 [Example 602] was 161

Note to self: IC50 recorded for CCc1c(F)ccc2cc(O)cc(-c3ncc4c(N5CC6CCC(CC(=O)NC)(C6)C5)nc(OC[C@@]56CCCN5C[C@H](F)C6)nc4c3F)c12 (stereo partly drawn) [Example 914] was 5

Note to self: IC50 recorded for CCc1c(F)ccc2cc(O)cc(-c3ncc4c(N5CCCC(N6C(=O)CCC6=O)C5)nc(OC[C@@]56CCCN5C[C@H](F)C6)nc4c3F)c12 (stereo partly drawn) [Example 638] was 16

###

- target: KRas^G12R (Homo sapiens, UniProt P01116, G12R)
- Construct: Biotinylated KRas (corresponding to amino acids 1-169, produced at Accelegan Inc.); biotin (biotinylated); purchased Accelegan Inc
- procedure_details: KRas binding assay (TR-FRET tracer displacement), KRas G12R
Rule for this label: 1 means IC50 is less than 100 nM; -1 means IC50 is at least 100 nM.

Consider the worked cases shown below.
compound: Cc1cc2[nH]nnc2c(-c2ncc3c(N4CCCn5nc(C(=O)N(C)C)cc5C4)nc(OCC45CCCN4CCC5)nc3c2F)c1C
answer_label: -1
--
compound: CCc1c(F)ccc2cc(O)cc(-c3ncc4c(N5CCC[C@@](C)(O)C5)nc(OCC56CC5CCCN(C)C6)nc4c3F)c12 (some centres unmarked)
answer_label: -1
--
compound: CCc1c(F)ccc2cc(O)cc(-c3ncc4c(N5C[C@H]6CC[C@@](C(=O)NC)(C5)C6(F)F)nc(OC[C@@]56CCCN5C[C@H](F)C6)nc4c3F)c12
answer_label: 1
--
compound: CCc1c(F)ccc2cc(O)cc(-c3ncc4c(N5CCCCCC(P(C)(C)=O)C5)nc(OC[C@@]56CCCN5C[C@H](F)C6)nc4c3F)c12 (some centres unmarked)
answer_label: -1
--
compound: CCc1c(F)ccc2cc(O)cc(-c3ncc4c(N5CC6CCC(C5)C65OCCO5)nc(OC[C@@]56CCCN5C[C@H](F)C6)nc4c3F)c12
answer_label: 1
--
compound: CCc1c(F)ccc2cc(O)cc(-c3ncc4c(N5CC6C(=O)NC(=O)C6C5C)nc(OC[C@@]56CCCN5C[C@H](F)C6)nc4c3F)c12 (some centres unmarked)
answer_label: 1
--
compound: CCc1c(F)ccc2cc(O)cc(-c3ncc4c(N5CCCc6ncncc6C5)nc(OC[C@@]56CCCN5C[C@H](F)C6)nc4c3F)c12
answer_label: 1
--
compound: CCc1c(F)ccc2cc(O)cc(-c3ncc4c(N5CCCC(O)(C(N)=O)C5)nc(OC[C@@]56CCCN5C[C@H](F)C6)nc4c3F)c12 (some centres unmarked)
answer_label: 1
--
compound: Oc1cc(-c2ncc3c(N4C[C@@H]5C[C@H](C4)[C@H](O)C5)nc(OC[C@@]45CCCN4C[C@H](F)C5)nc3c2F)c2cc(C(F)(F)F)ccc2c1
answer_label: 1
--
compound: CCc1c(F)ccc2cc(O)cc(-c3ncc4c(N5CCC[C@@](C)(O)C5)nc(OC[C@@]56CCCN5[C@H](COC(=O)NC(C)C)CC6)nc4c3F)c12
answer_label: 1

Turning now to a further record.
Req: In the record for C#CC1(F)CCN(c2nc(OC[C@@]34CCCN3C[C@H](F)C4)nc3c(F)c(-c4cc(O)cc5ccc(F)c(CC)c45)ncc23)CC1 , is IC50 less than 100 nM?
Resp: 1

###

- target: KRas^G12R (Homo sapiens, UniProt P01116, G12R)
- Construct: Biotinylated KRas (corresponding to amino acids 1-169, produced at Accelegan Inc.); biotin (biotinylated); purchased Accelegan Inc
- procedure_details: KRas binding assay (TR-FRET tracer displacement), KRas G12R
Entries and their IC50 values follow.
Note: unit nM is implicit; provide only the numeric part.

Example cases with answers are listed next.
compound: Cc1cc2[nH]ncc2c(-c2ncc3c(N4CCCC5(C4)NC(=O)NC5=O)nc(OCC45CCCN4CCC5)nc3c2F)c1C (stereo not shown)
IC50 [nM]: 34
//
compound: CCc1c(F)ccc2cc(O)cc(-c3ncc4c(N5CCCC(C6CCNC6=O)C5)nc(OC[C@@]56CCCN5C[C@H](F)C6)nc4c3F)c12 (single isomer, unassigned) [Example 619]
IC50 [nM]: 4

Now look at this entry.
Note to self: IC50 recorded for CCc1c(F)ccc2cc(O)cc(-c3ncc4c(NCc5c[nH]nc5NC(=O)C5COC5)nc(OC[C@@]56CCCN5C[C@H](F)C6)nc4c3F)c12 was 38

###

- target: KRas^G12S (Homo sapiens, UniProt P01116, G12S)
- Construct: Biotinylated KRas (corresponding to amino acids 1-169, produced at Accelegan Inc.); biotin (biotinylated); purchased Accelegan Inc
- Sequence (P01116 1-169 isoform P01116-2 G12S): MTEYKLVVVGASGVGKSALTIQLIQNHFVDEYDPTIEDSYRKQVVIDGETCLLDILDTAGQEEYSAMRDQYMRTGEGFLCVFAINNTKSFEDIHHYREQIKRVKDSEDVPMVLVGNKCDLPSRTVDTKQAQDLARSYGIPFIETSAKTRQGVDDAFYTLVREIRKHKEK
- procedure_details: KRas binding assay (TR-FRET tracer displacement), KRas G12S
- test_parameters: TR-FRET tracer displacement, KRas G12S
property: IC50 (nM)
Note: unit nM is implicit; provide only the numeric part.

structure_smiles: CN(C)C(=O)c1cc2n(n1)CCCN(c1nc(OC[C@@]34CCCN3C[C@H](F)C4)nc3c(F)c(-c4c(C5CC5)c(Cl)cc5[nH]ncc45)ncc13)C2
IC50 / nM: 5
//
structure_smiles: Oc1cc(-c2ncc3c(N4C[C@@H]5C[C@H](C4)[C@H](O)C5)nc(OC[C@@]45CCCN4C[C@H](F)C5)nc3c2F)c2ccccc2c1F
IC50 / nM: 43
//
structure_smiles: CCc1c(F)ccc2cc(O)cc(-c3ncc4c(N5CC=CCC5)nc(OC[C@@]56CCCN5C[C@H](F)C6)nc4c3F)c12
IC50 / nM: 2
//
structure_smiles: CN(C)C(=O)c1cc2n(n1)CCCN(c1nc(OCC34CCCN3CCC4)nc3c(F)c(-c4c(C5CC5)c(Cl)cc5[nH]ncc45)ncc13)C2
IC50 / nM: 7

Note to self: IC50 recorded for CCc1c(F)ccc2cc(O)cc(-c3ncc4c(N5C[C@@H]6C[C@H](C5)[C@H](O)C6)nc(OC[C@@]56CCCN5C[C@@H](F)C6)nc4c3F)c12 was 5

###

Entries and their IC50 values follow.
- target: KRas^G12V (Homo sapiens, UniProt P01116, G12V)
- Construct: Biotinylated KRas (corresponding to amino acids 1-169, produced at Accelegan Inc.); biotin (biotinylated); purchased Accelegan Inc
- Sequence (P01116 1-169 isoform P01116-2 G12V): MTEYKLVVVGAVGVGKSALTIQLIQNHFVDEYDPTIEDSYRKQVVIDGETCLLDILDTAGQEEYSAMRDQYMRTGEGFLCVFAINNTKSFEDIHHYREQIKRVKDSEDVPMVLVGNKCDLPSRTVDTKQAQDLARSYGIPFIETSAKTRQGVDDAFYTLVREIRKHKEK
- procedure_details: KRas binding assay (TR-FRET tracer displacement), KRas G12V

compound: CCc1c(F)ccc2cc(O)cc(-c3ncc4c(N5CCOCC(P(C)(C)=O)C5)nc(OC[C@@]56CCCN5C[C@H](F)C6)nc4c3F)c12 (stereo partly drawn)
target: KRas^G12V (Homo sapiens, UniProt P01116, G12V)
property: IC50
recorded_measurement: 15 nM

compound: C#Cc1c(F)ccc2cc(O)cc(-c3ncc4c(N5CCC[C@@](C)(O)C5)nc(OC[C@@]56CCCN5[C@@H](CO)CC6)nc4c3F)c12
target: KRas^G12V (Homo sapiens, UniProt P01116, G12V)
property: IC50
recorded_measurement: 4 nM

compound: Cc1cc2[nH]ncc2c(-c2ncc3c(N4CC5C(=O)NC(=O)C5C4)nc(OCC45CCCN4CCC5)nc3c2F)c1C (stereo not drawn)
target: KRas^G12V (Homo sapiens, UniProt P01116, G12V)
property: IC50
recorded_measurement: 131 nM

compound: C[C@@H]1C[C@@H]1c1c(Cl)cc(O)cc1-c1ncc2c(N3CCCn4nc(C(=O)N(C)C)cc4C3)nc(OCC34CCCN3C/C(=C\F)C4)nc2c1F (stereo partly drawn)
target: KRas^G12V (Homo sapiens, UniProt P01116, G12V)
property: IC50
recorded_measurement: < 2 nM

compound: Oc1cc(-c2ncc3c(N4C[C@@H]5C[C@H](C4)[C@H](O)C5)nc(OC[C@@]45CCCN4C[C@H](F)C5)nc3c2F)c2ccccc2c1
target: KRas^G12V (Homo sapiens, UniProt P01116, G12V)
property: IC50
recorded_measurement: 5 nM

Now look at this entry.
Note to self: IC50 recorded for CCc1c(F)ccc2cc(O)cc(-c3ncc4c(N5CCC[C@@](C)(O)C5)nc(OC[C@@]56CCCN5CC(=C(F)F)C6)nc4c3F)c12 (single isomer, unassigned) was < 2 nM
